biological target: L1 transport system (large neutral amino acid carrier, L1-system carrier) (Rattus norvegicus, UniProt Q63016); construct: functionality of their endogenous transporters such as the L1-system carrier; endogenous in cells; host or cells: rat primary cerebrovascular (brain microcapillary) endothelial cells, RBEC; assay: Competitive binding assay to the brain L1 transport system (L-[U-14C]phenylalanine on rat primary cerebrovascular endothelial cells); conditions: 10^−6 M
Sequence (Q63016 whole entry): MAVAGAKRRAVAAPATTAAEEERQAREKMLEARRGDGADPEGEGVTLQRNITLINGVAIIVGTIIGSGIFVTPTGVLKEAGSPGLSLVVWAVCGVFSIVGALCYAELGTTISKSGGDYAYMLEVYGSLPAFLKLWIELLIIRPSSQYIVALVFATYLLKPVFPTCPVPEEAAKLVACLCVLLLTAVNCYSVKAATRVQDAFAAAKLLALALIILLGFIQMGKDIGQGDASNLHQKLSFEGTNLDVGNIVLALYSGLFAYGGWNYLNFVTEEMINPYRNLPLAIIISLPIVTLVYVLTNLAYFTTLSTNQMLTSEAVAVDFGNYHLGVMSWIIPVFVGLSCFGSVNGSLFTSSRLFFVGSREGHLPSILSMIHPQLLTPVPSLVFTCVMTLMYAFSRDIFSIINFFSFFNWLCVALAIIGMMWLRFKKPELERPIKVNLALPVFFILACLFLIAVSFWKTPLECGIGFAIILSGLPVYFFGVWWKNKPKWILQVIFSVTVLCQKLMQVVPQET
Sequence (Q794F9 whole entry partner): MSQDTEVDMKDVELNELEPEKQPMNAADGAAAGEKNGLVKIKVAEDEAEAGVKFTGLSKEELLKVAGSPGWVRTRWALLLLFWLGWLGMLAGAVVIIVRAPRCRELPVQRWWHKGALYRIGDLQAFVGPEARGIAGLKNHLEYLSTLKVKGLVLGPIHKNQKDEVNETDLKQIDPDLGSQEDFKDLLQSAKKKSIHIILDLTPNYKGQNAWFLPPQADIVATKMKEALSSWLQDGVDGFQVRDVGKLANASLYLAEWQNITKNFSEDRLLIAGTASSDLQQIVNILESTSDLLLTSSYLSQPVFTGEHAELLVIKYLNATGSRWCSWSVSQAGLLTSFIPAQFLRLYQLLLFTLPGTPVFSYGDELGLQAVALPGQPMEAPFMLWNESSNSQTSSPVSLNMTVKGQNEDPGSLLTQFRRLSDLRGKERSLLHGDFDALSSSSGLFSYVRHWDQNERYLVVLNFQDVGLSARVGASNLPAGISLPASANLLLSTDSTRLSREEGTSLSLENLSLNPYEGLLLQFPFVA
observation.type: Comparison with the Binding of Phenylalanine

compound	result
NC(Cc1cccc(CSc2nnc(-c3ccccc3)o2)c1)C(=O)O (centres unmarked) [Compound 1]	2 (10 < X < 20 Rank 2)
NC(=O)C(N)Cc1cccc(CSc2nnc(-c3ccccc3)[nH]2)c1 (centres unmarked) [Compound 14]	2 (10 < X < 20 Rank 2)
NC(Cc1cccc(CSc2ncccc2C(=O)O)c1)C(=O)O (centres unmarked) [Compound 137]	2 (10 < X < 20 Rank 2)
CN(C)CCn1nnnc1SCc1ccc(-c2ccc(CC(N)C(=O)O)cc2)cc1 (centres unmarked) [Compound 118]	3 (X > 20 Rank 3)
NC(Cc1cccc(CN2CCN(c3cccc(Cl)c3)CC2)n1)C(=O)O (centres unmarked) [Compound 86]	1 (0 < X < 10 Rank 1)
CCOC(=O)c1cnc(SCc2cccc(CC(N)C(=O)O)n2)[nH]c1=O (centres unmarked) [Compound 146]	3 (X > 20 Rank 3)
NC(=O)C(N)Cc1cccc(CSc2cncc3c(C(F)(F)F)cccc23)n1 (centres unmarked) [Compound 25]	0 (X < 0 Rank 0)
N#CC1(c2ccccc2)CCN(Cc2ccc(-c3ccc(CC(N)C(=O)O)cc3)cc2)CC1 (centres unmarked) [Compound 147]	1 (0 < X < 10 Rank 1)
NC(Cc1cccc(CSc2nc3cc([N+](=O)[O-])ccc3[nH]2)n1)C(=O)O (centres unmarked) [Compound 94]	1 (0 < X < 10 Rank 1)
NC(Cc1ccc(-c2ccc(CSc3ccnc4cc(C(F)(F)F)ccc34)cc2)cc1)C(=O)O (centres unmarked) [Compound 47]	2 (10 < X < 20 Rank 2)
Cc1nc(SCc2ccc(-c3ccc(CC(N)C(=O)O)cc3)cc2)sc1CC(=O)O (centres unmarked) [Compound 122]	1 (0 < X < 10 Rank 1)
